Ref: the NIST ThermoML archive (doi:10.1021/je200790q)

experimental.context: 338.15 K; 101.33 kPa; Liquid
measurement.kind: viscosity (mPa·s)
Could you give me the number in mPa·s? Just the number is fine.

Lab note: measured viscosity of CC(=O)[O-].CCn1cc[n+](C)c1 [1-ethyl-3-methylimidazolium acetate] was 22.27

Lab note: measured viscosity of CCn1cc[n+](C)c1.COP(=O)([O-])OC [1-ethyl-3-methylimidazolium dimethylphosphate] was 37.78

Lab note: measured viscosity of CCn1cc[n+](C)c1.N#CN=C=[N-] [1-ethyl-3-methylimidazolium dicyanamide] was 6.327

Lab note: measured viscosity of CCn1cc[n+](C)c1.CO[PH](=O)[O-] [1-ethyl-3-methylimidazolium methyl phosphonate] was 32.99

Lab note: measured viscosity of CCn1cc[n+](C)c1.N#C[S-] [1-ethyl-3-methylimidazolium thiocyanate] was 8.582

Lab note: measured viscosity of CCn1cc[n+](C)c1.Cc1ccc(S(=O)(=O)[O-])cc1 [1-ethyl-3-methylimidazolium 4-methylbenzenesulfonate] was 97.21

Lab note: measured viscosity of CCn1cc[n+](C)c1.O=S(=O)([O-])C(F)(F)F [1-ethyl-3-methylimidazolium trifluoromethanesulfonate] was 13.52

Lab note: measured viscosity of CCn1cc[n+](C)c1.CS(=O)(=O)[O-] [1-ethyl-3-methylimidazolium methanesulfonate] was 26.84

* * *

Could you please report measured refractive index for the items listed next?
experimental.protocol: refractive index (Na D-line) (dimensionless)
experimental.context: 312.91 K; 101.33 kPa; Liquid; Standard Abbe refractometry
Answer field: number only, no words.

Lab note: measured refractive index of CCn1cc[n+](C)c1.CO[PH](=O)[O-] [1-ethyl-3-methylimidazolium methyl phosphonate] was 1.48854

Lab note: measured refractive index of CC(=O)[O-].CCn1cc[n+](C)c1 [1-ethyl-3-methylimidazolium acetate] was 1.49666

Lab note: measured refractive index of CCn1cc[n+](C)c1.N#CN=C=[N-] [1-ethyl-3-methylimidazolium dicyanamide] was 1.50956

Lab note: measured refractive index of CCn1cc[n+](C)c1.COP(=O)([O-])OC [1-ethyl-3-methylimidazolium dimethylphosphate] was 1.47771

Lab note: measured refractive index of CCn1cc[n+](C)c1.O=S(=O)([O-])C(F)(F)F [1-ethyl-3-methylimidazolium trifluoromethanesulfonate] was 1.42886

Lab note: measured refractive index of CCn1cc[n+](C)c1.CS(=O)(=O)[O-] [1-ethyl-3-methylimidazolium methanesulfonate] was 1.49114

* * *

Could you please report measured viscosity for the items listed next?
experimental.context: 363.15 K; 101.33 kPa; Liquid
Could you give me the number in mPa·s? Just the number is fine.

Lab note: measured viscosity of CCn1cc[n+](C)c1.Cc1ccc(S(=O)(=O)[O-])cc1 [1-ethyl-3-methylimidazolium 4-methylbenzenesulfonate] was 33.22

Lab note: measured viscosity of CC(=O)[O-].CCn1cc[n+](C)c1 [1-ethyl-3-methylimidazolium acetate] was 10.95

Lab note: measured viscosity of CCn1cc[n+](C)c1.CO[PH](=O)[O-] [1-ethyl-3-methylimidazolium methyl phosphonate] was 16.03

Lab note: measured viscosity of CCn1cc[n+](C)c1.N#C[S-] [1-ethyl-3-methylimidazolium thiocyanate] was 5.485

* * *

experimental.context: 348.15 K; 101.33 kPa; Liquid
Could you please report measured viscosity for the items listed next?
Could you give me the number in mPa·s? Just the number is fine.

Lab note: measured viscosity of CCn1cc[n+](C)c1.COP(=O)([O-])OC [1-ethyl-3-methylimidazolium dimethylphosphate] was 26.99

Lab note: measured viscosity of CCn1cc[n+](C)c1.CS(=O)(=O)[O-] [1-ethyl-3-methylimidazolium methanesulfonate] was 19.75

Lab note: measured viscosity of CC(=O)[O-].CCn1cc[n+](C)c1 [1-ethyl-3-methylimidazolium acetate] was 16.31

Lab note: measured viscosity of CCn1cc[n+](C)c1.Cc1ccc(S(=O)(=O)[O-])cc1 [1-ethyl-3-methylimidazolium 4-methylbenzenesulfonate] was 59.9

* * *

experimental.context: 328.15 K; 101.33 kPa; Liquid; Vibrating tube method
Could you please report measured mass density for the items listed next?
Could you give me the number in kg/m3? Just the number is fine.

Lab note: measured mass density of CCn1cc[n+](C)c1.N#CN=C=[N-] [1-ethyl-3-methylimidazolium dicyanamide] was 1084.2

Lab note: measured mass density of CCn1cc[n+](C)c1.Cc1ccc(S(=O)(=O)[O-])cc1 [1-ethyl-3-methylimidazolium 4-methylbenzenesulfonate] was 1206.8

Lab note: measured mass density of CCn1cc[n+](C)c1.CS(=O)(=O)[O-] [1-ethyl-3-methylimidazolium methanesulfonate] was 1222.2

Lab note: measured mass density of CCn1cc[n+](C)c1.COP(=O)([O-])OC [1-ethyl-3-methylimidazolium dimethylphosphate] was 1197.2

Lab note: measured mass density of CC(=O)[O-].CCn1cc[n+](C)c1 [1-ethyl-3-methylimidazolium acetate] was 1081

Lab note: measured mass density of CCn1cc[n+](C)c1.O=S(=O)([O-])C(F)(F)F [1-ethyl-3-methylimidazolium trifluoromethanesulfonate] was 1360.6

Lab note: measured mass density of CCn1cc[n+](C)c1.CO[PH](=O)[O-] [1-ethyl-3-methylimidazolium methyl phosphonate] was 1189.2

Lab note: measured mass density of CCn1cc[n+](C)c1.N#C[S-] [1-ethyl-3-methylimidazolium thiocyanate] was 1098.8

* * *

experimental.context: 298.15 K; 101.33 kPa; Liquid
measurement.kind: viscosity (mPa·s)
Could you give me the number in mPa·s? Just the number is fine.

Lab note: measured viscosity of CCn1cc[n+](C)c1.CO[PH](=O)[O-] [1-ethyl-3-methylimidazolium methyl phosphonate] was 206.76

Lab note: measured viscosity of CC(=O)[O-].CCn1cc[n+](C)c1 [1-ethyl-3-methylimidazolium acetate] was 143.61

Lab note: measured viscosity of CCn1cc[n+](C)c1.CS(=O)(=O)[O-] [1-ethyl-3-methylimidazolium methanesulfonate] was 166.59

Lab note: measured viscosity of CCn1cc[n+](C)c1.O=S(=O)([O-])C(F)(F)F [1-ethyl-3-methylimidazolium trifluoromethanesulfonate] was 42.94

Lab note: measured viscosity of CCn1cc[n+](C)c1.N#CN=C=[N-] [1-ethyl-3-methylimidazolium dicyanamide] was 16.09

Lab note: measured viscosity of CCn1cc[n+](C)c1.N#C[S-] [1-ethyl-3-methylimidazolium thiocyanate] was 24.5

* * *

Could you please report measured refractive index for the items listed next?
experimental.protocol: refractive index (Na D-line) (dimensionless)
experimental.context: 288.37 K; 101.33 kPa; Liquid; Standard Abbe refractometry
Numbers after ± are expanded uncertainties.

Lab note: measured refractive index of CC(=O)[O-].CCn1cc[n+](C)c1 [1-ethyl-3-methylimidazolium acetate] was 1.50371 ± 0.00053

Lab note: measured refractive index of CCn1cc[n+](C)c1.CO[PH](=O)[O-] [1-ethyl-3-methylimidazolium methyl phosphonate] was 1.49534 ± 0.00053

Lab note: measured refractive index of CCn1cc[n+](C)c1.O=S(=O)([O-])C(F)(F)F [1-ethyl-3-methylimidazolium trifluoromethanesulfonate] was 1.43572 ± 0.00053

Lab note: measured refractive index of CCn1cc[n+](C)c1.N#CN=C=[N-] [1-ethyl-3-methylimidazolium dicyanamide] was 1.51745 ± 0.00055

Lab note: measured refractive index of CCn1cc[n+](C)c1.CS(=O)(=O)[O-] [1-ethyl-3-methylimidazolium methanesulfonate] was 1.49823 ± 0.00053

* * *

Could you please report measured mass density for the items listed next?
experimental.context: 353.15 K; 101.33 kPa; Liquid; Vibrating tube method
Could you give me the number in kg/m3? Just the number is fine.

Lab note: measured mass density of CCn1cc[n+](C)c1.O=S(=O)([O-])C(F)(F)F [1-ethyl-3-methylimidazolium trifluoromethanesulfonate] was 1340.4

Lab note: measured mass density of CCn1cc[n+](C)c1.Cc1ccc(S(=O)(=O)[O-])cc1 [1-ethyl-3-methylimidazolium 4-methylbenzenesulfonate] was 1191.5

Lab note: measured mass density of CCn1cc[n+](C)c1.COP(=O)([O-])OC [1-ethyl-3-methylimidazolium dimethylphosphate] was 1181

Lab note: measured mass density of CCn1cc[n+](C)c1.N#CN=C=[N-] [1-ethyl-3-methylimidazolium dicyanamide] was 1068.5

Lab note: measured mass density of CCn1cc[n+](C)c1.N#C[S-] [1-ethyl-3-methylimidazolium thiocyanate] was 1084.3

Lab note: measured mass density of CC(=O)[O-].CCn1cc[n+](C)c1 [1-ethyl-3-methylimidazolium acetate] was 1066.3

Lab note: measured mass density of CCn1cc[n+](C)c1.CO[PH](=O)[O-] [1-ethyl-3-methylimidazolium methyl phosphonate] was 1173.9

Lab note: measured mass density of CCn1cc[n+](C)c1.CS(=O)(=O)[O-] [1-ethyl-3-methylimidazolium methanesulfonate] was 1205.9
